# System: Aspergillus fumigatus
# assay: Antifungal activity in vitro, resazurin growth inhibition screen: Aspergillus fumigatus
# Format: cell-based
# applied.conditions: Aspergillus fumigatus B42928
recorded.metric: Inf. E pIC50
Give your answer as a number; write no unit.

[in] For Cl.O=C1CCc2cc(C3NCc4c(Cl)cccc4-n4cccc43)ccc21 (stereo not drawn) , what is its reported Inf. E pIC50?
[out] 5.24

[in] If you can, please state the reported Inf. E pIC50 value of Cl.Fc1cccc2c1CNC(c1ccc3c(c1)CCC(F)(F)O3)c1cccn1-2 (stereo not drawn) .
[out] 4.97

[in] // returns reported Inf. E pIC50 for input Cl.Clc1cc(Cl)c2c(c1)-n1cccc1C(c1ccc3c(c1)CCC3)NC2 (stereo not drawn)
[out] 4.96

[in] Data request, read-out Inf. E pIC50, for Br.Clc1cccc2c1CNC(c1ccc3c(c1)CCC3)c1cccn1-2 (stereo not drawn)
[out] 5.70

[in] Would you kindly share the measured Inf. E pIC50 for Clc1cc(Cl)c2c(c1)CN=C(c1ccc3c(c1)CCO3)c1cccn1-2 ?
[out] 5.00

[in] Look up Inf. E pIC50: FC1(F)Oc2ccc(C3=NCc4cccc(Cl)c4-n4cccc43)cc2O1
[out] 5.94

[in] I have this molecule here, Fc1cccc2c1CN=C(c1ccc3c(c1)CCOC3)c1cccn1-2 , and I need its recorded Inf. E pIC50.
[out] 6.77

[in] I have this molecule here, FC1(F)CCc2cc(C3=NCc4cccc(Cl)c4-n4cccc43)ccc21 , and I need its recorded Inf. E pIC50.
[out] 4.19

[in] Need Inf. E pIC50, item Fc1cc(F)c2c(c1)-n1cccc1C(c1ccc3c(c1)OC(F)(F)O3)=NC2
[out] 6.44

[in] Param item = FC1(F)Oc2ccc(C3=NCc4ccc(Cl)cc4-n4cccc43)cc2O1 ; retrieve measured Inf. E pIC50.
[out] 6.24

[in] I am curious: what Inf. E pIC50 value has been reported for FC1(F)CCc2cc(C3=NCc4ccc(Cl)cc4-n4cccc43)ccc21 ?
[out] 5.10

[in] Tell me the measured Inf. E pIC50 of Cl.Clc1cc(Cl)c2c(c1)CNC(c1ccc3c(c1)CCC3)c1cccn1-2 (stereo not drawn) , please.
[out] 5.46

[in] # input molecule: FC1(F)CCc2cc(C3=NCc4c(Cl)cccc4-n4cccc43)ccc21 ; wanted: its Inf. E pIC50
[out] 5.09

[in] Request the reported Inf. E pIC50 associated with Clc1cccc2c1CN=C(c1ccc3c(c1)CCOC3)c1cccn1-2
[out] 6.77

[in] Fill in the blank: the reported Inf. E pIC50 of CN1CCc2cc(C3=NCc4c(Cl)cccc4-n4cccc43)ccc21 is ____.
[out] 5.89

[in] Form field: reported Inf. E pIC50 of Clc1cccc2c1-n1cccc1C(c1ccc3c(c1)CCOC3)=NC2
[out] 5.56

[in] What measured Inf. E pIC50 goes with FC1(F)Oc2ccc(C3=NCc4c(Cl)cccc4-n4cccc43)cc2O1 ?
[out] 7.08

[in] # Inf. E pIC50 lookup, item Cl.Clc1cccc2c1CNC(c1ccc3c(c1)CCOC3)c1cccn1-2 (stereo not drawn)
[out] 5.99

====

Could you please report measured log10 IC50 for the items listed next?
# Tested on: Scedosporium prolificans
# assay: Antifungal activity in vitro, resazurin growth inhibition screen: Scedosporium prolificans
# Type: cell-based
# applied.conditions: Lomentospora prolificans; Scedosporium prolificans IHEM21157; read-out: Inf. I pIC50 (converted)
A difference of one corresponds to tenfold IC50; all values are log10 with IC50 in nM.

[in] Reported log10 IC50, compound Clc1cccc2c1CN=C(c1ccc3c(c1)OCC3)c1cccn1-2 [Compound 36] : ____
[out] 3.08

[in] Would you kindly share the measured log10 IC50 for Clc1cccc2c1CN=C(c1ccc3c(c1)CCO3)c1cccn1-2 [Compound 35] ?
[out] 3.11

[in] Need log10 IC50, item Clc1cc(Cl)c2c(c1)-n1cccc1C(c1ccc3c(c1)CCO3)=NC2 [Compound 45]
[out] 3.79

[in] Record request: log10 IC50 value, item Clc1cccc2c1CN=C(c1ccc3c(c1)CCCC3)c1cccn1-2 [Compound 21]
[out] 1.60

[in] Could you tell me which log10 IC50 is on file for FC1(F)CCc2cc(C3=NCc4c(Cl)cccc4-n4cccc43)ccc2O1 [Compound 69] ?
[out] 2.85

[in] Quick one: log10 IC50 for O=C1OCc2cc(C3=NCc4c(Cl)cccc4-n4cccc43)ccc21 [Compound 65] ?
[out] 2.77

[in] // returns reported log10 IC50 for input Clc1cc(Cl)c2c(c1)-n1cccc1C(c1ccc3c(c1)CCC3)=NC2 [Compound 23]
[out] 2.78

[in] Look up log10 IC50 for this compound: Fc1cc(Cl)c2c(c1)-n1cccc1C(c1ccc3c(c1)CCC3(F)F)=NC2 [Compound 88]
[out] 3.41

[in] log10 IC50 for Cn1c(=O)oc2ccc(C3=NCc4c(Cl)cccc4-n4cccc43)cc21 [Compound 80] ?
[out] 4.35

[in] // query log10 IC50 value for entry O=C1CCCc2cc(C3=NCc4c(Cl)cccc4-n4cccc43)ccc21 [Compound 58]
[out] 3.97

[in] Given Fc1cccc2c1CN=C(c1ccc3c(c1)OC(F)(F)O3)c1cccn1-2 [Compound 77] , state its recorded log10 IC50.
[out] 3.24

[in] Entry O=C1CCCc2cc(C3=NCc4c(F)cccc4-n4cccc43)ccc21 [Compound 59] has what log10 IC50?
[out] 3.17

[in] What does the data say about its log10 IC50? Entry: O=C1CCc2cc(C3=NCc4c(Cl)cccc4-n4cccc43)ccc21 [Compound 56]
[out] 2.04

[in] Request the reported log10 IC50 associated with O=C1OCc2ccc(C3=NCc4c(F)cccc4-n4cccc43)cc21 [Compound 63]
[out] 3.20

[in] What does the record list as log10 IC50 for Clc1cccc2c1CN=C(c1ccc3c(c1)CCC3)c1cccn1-2 [Compound 20] ?
[out] 2.93

====

# Tested on: Sporothrix schenkii
# assay: Antifungal activity in vitro, resazurin growth inhibition screen: Sporothrix schenkii
# Format: cell-based
# applied.conditions: Sporothrix schenkii B62482
For each of the molecules below, state its Inf. A pIC50.

[in] Please report the recorded Inf. A pIC50 for Cl.Clc1cccc2c1CNC(c1ccc3c(c1)OCC3)c1cccn1-2 (stereo not shown) .
[out] <4.19

[in] GET /values?readout=Inf. A pIC50&item= FC1(F)CCc2cc(C3=NCc4c(Cl)cccc4-n4cccc43)ccc21
[out] 4.46

[in] Give its Inf. A pIC50 value. Item: Cl.Clc1cc(Cl)c2c(c1)CNC(c1ccc3c(c1)CCO3)c1cccn1-2 (stereo not shown)
[out] <4.19

[in] # query: Inf. A pIC50 of entry Cl.Clc1cccc2c1CNC(c1ccc3c(c1)CCO3)c1cccn1-2 (stereo not shown)
[out] <4.19

[in] What Inf. A pIC50 value was documented for this molecule, Cl.Fc1cccc2c1CNC(c1ccc3c(c1)CCC(F)(F)O3)c1cccn1-2 (stereo not shown) ?
[out] <4.19

[in] Please look up its Inf. A pIC50: CN1CCc2cc(C3=NCc4c(Cl)cccc4-n4cccc43)ccc21
[out] 5.14

[in] Entry FC1(F)Oc2ccc(C3=NCc4c(Cl)cc(Cl)cc4-n4cccc43)cc2O1 has what Inf. A pIC50?
[out] 4.90

[in] Endpoint output: Inf. A pIC50 of Clc1ccc2c(c1)-n1cccc1C(c1ccc3c(c1)CCOC3)=NC2 . Value?
[out] <4.19

[in] Sample Br.COc1cccc2c1CNC(c1ccc3c(c1)OCO3)c1cccn1-2 (stereo not shown) — what was its Inf. A pIC50?
[out] <4.19

[in] Which Inf. A pIC50 reading was recorded for the molecule Fc1cccc2c1CN=C(c1ccc3c(c1)CCCO3)c1cccn1-2 ?
[out] <4.19

[in] May I ask what Inf. A pIC50 has been recorded for Cl.Clc1cc(Cl)c2c(c1)-n1cccc1C(c1ccc3c(c1)CCC3)NC2 (stereo not shown) ?
[out] <4.19

[in] Endpoint output: Inf. A pIC50 of Br.Clc1ccc2c(c1)-n1cccc1C(c1ccc3c(c1)OCO3)NC2 (stereo not shown) . Value?
[out] 4.21

[in] Can you look up the measured Inf. A pIC50 of Cl.Clc1cccc2c1CNC(c1ccc3c(c1)CCOC3)c1cccn1-2 (stereo not shown) for me?
[out] <4.19

[in] Inf. A pIC50 for Cl.Clc1cc(Cl)c2c(c1)CNC(c1ccc3c(c1)CCC3)c1cccn1-2 (stereo not shown) ?
[out] <4.19

[in] Inf. A pIC50 lookup needed for Br.COc1cc2c(cc1C1NCc3c(Cl)cccc3-n3cccc31)CCCC2 (stereo not shown) , thanks.
[out] <4.19

[in] Form field: reported Inf. A pIC50 of Clc1cccc2c1CN=C(c1ccc3c(c1)OCO3)c1cccn1-2
[out] <4.19

[in] Bench note: what Inf. A pIC50 did Cl.Fc1cc(F)c2c(c1)-n1cccc1C(c1ccc3c(c1)CCC(F)(F)O3)NC2 (stereo not shown) show?
[out] <4.19

[in] Given the molecule Cl.Clc1ccc(Cl)c2c1CNC(c1ccc3c(c1)CCC3)c1cccn1-2 (stereo not shown) , what is its reported Inf. A pIC50?
[out] <4.19

[in] Recorded Inf. A pIC50 for Cl.Clc1ccc2c(c1Cl)CNC(c1ccc3c(c1)CCC3)c1cccn1-2 (stereo not shown) , please?
[out] <4.19

[in] What value of Inf. A pIC50 has been reported for the following molecule? Br.COc1cc2c(cc1C1NCc3c(Cl)cccc3-n3cccc31)OC(C)C2 (stereo not shown)
[out] <4.19

[in] Which value of Inf. A pIC50 has been reported for FC1(F)Oc2ccc(C3=NCc4cccc(Cl)c4-n4cccc43)cc2O1 in the records?
[out] 5.69

[in] Record request: Inf. A pIC50 value, item Fc1cc(F)c2c(c1)-n1cccc1C(c1ccc3c(c1)CCCO3)=NC2
[out] 4.49

Measured values drawn from patent US9040524B2 for this set.
